Tested on: WM3918
Experiment: Growth inhibition (cell counting, day 5)
Format: cell-based
Settings: Melanoma
Metric name: IC50 (nM)
One number for each entry, in nM.

Q: Need IC50 of Nc1nc(N[C@H]2C[C@@H]3CC[C@H]2C3)sc1C(=O)c1ccccc1[N+](=O)[O-] (relative stereo) , thanks.
Ans: 150

* * *

Biological target: CDK14/cyclin Y (PFTK1) (Homo sapiens, UniProt O94921)
Sequence (O94921 whole entry): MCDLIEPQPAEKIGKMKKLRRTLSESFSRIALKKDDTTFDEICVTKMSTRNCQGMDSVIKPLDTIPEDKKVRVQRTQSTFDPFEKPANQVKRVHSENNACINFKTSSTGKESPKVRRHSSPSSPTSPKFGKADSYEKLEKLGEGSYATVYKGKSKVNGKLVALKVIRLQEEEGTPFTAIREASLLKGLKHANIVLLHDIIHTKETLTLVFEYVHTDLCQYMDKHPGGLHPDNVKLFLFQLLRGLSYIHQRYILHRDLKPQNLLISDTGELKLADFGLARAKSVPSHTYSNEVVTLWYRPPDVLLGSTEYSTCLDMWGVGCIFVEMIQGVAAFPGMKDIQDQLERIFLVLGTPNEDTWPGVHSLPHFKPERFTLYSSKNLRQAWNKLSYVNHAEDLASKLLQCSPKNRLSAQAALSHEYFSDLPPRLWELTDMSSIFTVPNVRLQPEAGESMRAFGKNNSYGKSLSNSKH
Sequence (Q8ND76 whole entry partner): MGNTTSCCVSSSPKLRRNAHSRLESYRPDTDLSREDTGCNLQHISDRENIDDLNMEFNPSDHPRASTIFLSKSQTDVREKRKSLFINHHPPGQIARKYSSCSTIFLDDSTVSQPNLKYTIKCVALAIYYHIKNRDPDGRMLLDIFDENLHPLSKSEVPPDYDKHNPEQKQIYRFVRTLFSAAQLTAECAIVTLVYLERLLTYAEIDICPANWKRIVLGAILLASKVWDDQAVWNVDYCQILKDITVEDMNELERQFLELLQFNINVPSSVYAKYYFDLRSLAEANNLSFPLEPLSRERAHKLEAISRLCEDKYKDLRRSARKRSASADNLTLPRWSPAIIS
Assay: CDK enzymatic assay
Conditions: Fig. 1A
Metric name: IC50
// unit must come after the numeric part

Q: Need IC50 of Nc1nc(N[C@H]2C[C@@H]3CC[C@H]2C3)sc1C(=O)c1ccccc1[N+](=O)[O-] (relative stereo) [MC180295] , thanks.
Ans: 0.528 µM
